Ref: BindingDB's records for patent WO2022076764

Biological target: fMet-Leu-Phe receptor (Homo sapiens, UniProt P21462)
Sequence (P21462 whole entry): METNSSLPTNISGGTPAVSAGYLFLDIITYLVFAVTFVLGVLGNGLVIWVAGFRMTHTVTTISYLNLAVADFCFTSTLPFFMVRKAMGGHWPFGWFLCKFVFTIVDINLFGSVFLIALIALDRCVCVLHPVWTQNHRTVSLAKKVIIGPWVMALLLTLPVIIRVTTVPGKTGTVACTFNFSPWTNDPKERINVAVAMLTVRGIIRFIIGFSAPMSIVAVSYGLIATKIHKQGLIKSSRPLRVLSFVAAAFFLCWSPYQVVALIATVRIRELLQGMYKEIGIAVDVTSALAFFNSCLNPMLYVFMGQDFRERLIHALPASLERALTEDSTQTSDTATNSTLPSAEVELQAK
pEC50: −log10 of the molar value.
result-type: pEC50

// solved cases for pEC50 follow
- compound: "COc1cc(F)c(-n2cc(C3CC3)nc2NC(=O)c2ccc(OC(F)F)cc2)c(F)c1 [WO2022076764, Example 37]"
  result-number: 7.80
- compound: "COc1cc(F)c(-n2cc(-c3ccc(Cl)c(Cl)c3)nc2NC(=O)c2ccc(OC(F)F)cc2)c(F)c1 [WO2022076764, Example 18]"
  result-number: 7.29

a. COc1cc(F)c(-n2cc(-c3ccc(F)c(F)c3)nc2NC(=O)c2ccc(OC(F)F)cc2)c(F)c1 [WO2022076764, Example 36]
b. COc1ccc(-n2cc(-c3ccc4sccc4c3)nc2NC(=O)c2ccc(OC(F)F)cc2)cc1 [WO2022076764, Example 22]
[in] Which of the two items, a and b , has the greater recorded pEC50? // return label of chosen record
[out] a
